# System: HDQ-P1
# experimental.setup: 72 h
assay.readout: EC50, CellTiter-Blue viability (nM)

- molecule.smiles: "CO[C@@H](C(=O)N1Cc2[nH]nc(NC(=O)c3ccc(N4CCN(C)CC4)cc3)c2C1)c1ccccc1"
  assay.readout: "EC50, CellTiter-Blue viability"
  measured.number: 427
- molecule.smiles: "Cc1c(CN2CCN(C(=O)[C@H](C)O)CC2)sc2c(N3CCOCC3)nc(-c3cnc(N)nc3)nc12"
  assay.readout: "EC50, CellTiter-Blue viability"
  measured.number: 139
- molecule.smiles: "O=C(NC[C@H](O)CO)c1ccncc1Nc1ccc(I)cc1F"
  assay.readout: "EC50, CellTiter-Blue viability"
  measured.number: 161
- molecule.smiles: "CCN(CC)CCNC(=O)c1c(C)[nH]c(/C=C2\\C(=O)Nc3ccc(F)cc32)c1C"
  assay.readout: "EC50, CellTiter-Blue viability"
  measured.number: 721

---

# Tested on: HCC1937
# protocol.notes: normalised viability (% of control), CellTiter-Blue; higher = more viable cells (about 100 = DMSO control)
# experimental.setup: 10 nM; incubation time: 72 h

- molecule.smiles: "C[C@]12C=CC(=O)C=C1CC[C@@H]1[C@@H]2[C@@H](O)C[C@@]2(C)[C@H]1CC[C@]2(O)C(=O)CO"
  display.unit: "%"
  normalised viability: 91.7
- molecule.smiles: "COc1ccc(-c2cc3c(C)nc(N)nc3n([C@H]3CC[C@H](OCCO)CC3)c2=O)cn1"
  display.unit: "%"
  normalised viability: 68.4
- molecule.smiles: "Nc1ccccc1NC(=O)c1ccc(CNc2nccc(-c3cccnc3)n2)cc1"
  display.unit: "%"
  normalised viability: 84.4
- molecule.smiles: "O=C(NC[C@H](O)CO)c1ccncc1Nc1ccc(I)cc1F"
  display.unit: "%"
  normalised viability: 94.6
- molecule.smiles: "CCC/C=C/C=C/C(=O)O[C@H]1/C(=C/C(=O)OC)C[C@H]2C[C@H]([C@@H](C)O)OC(=O)C[C@H](O)C[C@@H]3C[C@H](OC(C)=O)C(C)(C)[C@](O)(C[C@@H]4C/C(=C/C(=O)OC)C[C@H](/C=C/C(C)(C)[C@]1(O)O2)O4)O3"
  display.unit: "%"
  normalised viability: 108

---

# Test system: MFM-223
# protocol.notes: normalised response (% of control), CellTiter-Glo; higher = more viable cells (100 = DMSO, 0 = benzethonium chloride kill control)
# experimental.setup: incubation time: 72 h

- compound: "CC(=O)OC[C@H]1O[C@@H]([S-])[C@H](OC(C)=O)[C@@H](OC(C)=O)[C@@H]1OC(C)=O.CCP(CC)CC.[Au+] [Auranofin] (25 nM)"
  normalised response: "97.8%"
- compound: "Cc1c(Cn2c(C)nc3c(C(=O)O)cc(N4CCOCC4)cc32)cccc1C(F)(F)F (100 nM)"
  normalised response: "108%"
- compound: "O=C(NC[C@H](O)CO)c1ccncc1Nc1ccc(I)cc1F [Pimasertib] (100 nM)"
  normalised response: "103%"
- compound: "CCCCC/C=C/C=C1/C(=O)C=C[C@@H]1C/C=C\\CCCC(=O)O [15D-PGJ2] (8 nM)"
  normalised response: "98.5%"
- compound: "CO[C@@H](C(=O)N1Cc2[nH]nc(NC(=O)c3ccc(N4CCN(C)CC4)cc3)c2C1)c1ccccc1 [Danusertib] (100 nM)"
  normalised response: "67.1%"
- compound: "C[C@]12C=CC(=O)C=C1CC[C@@H]1[C@@H]2[C@@H](O)C[C@@]2(C)[C@H]1CC[C@]2(O)C(=O)CO [Prednisolone] (100 nM)"
  normalised response: "110%"
- compound: "COc1ccc(-c2cc3c(C)nc(N)nc3n([C@H]3CC[C@H](OCCO)CC3)c2=O)cn1 (100 nM)"
  normalised response: "72.3%"
- compound: "CC[C@@]1(O)C(=O)OCc2c1cc1n(c2=O)Cc2cc3c(CN(C)C)c(O)ccc3nc2-1 [Topotecan] (100 nM)"
  normalised response: "97.4%"
- compound: "CCN(CC)CCNC(=O)c1c(C)[nH]c(/C=C2\\C(=O)Nc3ccc(F)cc32)c1C [Sunitinib] (10 nM)"
  normalised response: "105%"
- compound: "CCC/C=C/C=C/C(=O)O[C@H]1/C(=C/C(=O)OC)C[C@H]2C[C@H]([C@@H](C)O)OC(=O)C[C@H](O)C[C@@H]3C[C@H](OC(C)=O)C(C)(C)[C@](O)(C[C@@H]4C/C(=C/C(=O)OC)C[C@H](/C=C/C(C)(C)[C@]1(O)O2)O4)O3 [Bryostatin 1] (1 nM)"
  normalised response: "104%"
